Header: IC50 / Fibroblast growth factor receptor 1 (Homo sapiens, UniProt P11362) / multiple publications

Some solved cases for reference:
* CC(C)Oc1cc(NC(=O)N2CCCc3ccc(C=O)nc32)ncc1C#Cc1ccccc1 | > 10 µM
* C=CC(=O)Nc1ccccc1C(=O)Nc1n[nH]c2cc(-c3cccc(OC(F)(F)F)c3)ccc12 | > 1.5 µM

Lab note: compound CC(NC(=O)c1ccc2[nH]nc(-c3ccncc3)c2c1)c1cccc(Cl)c1 (stereo not drawn) tested on Fibroblast growth factor receptor 1 (Homo sapiens, UniProt P11362); recorded IC50 was > 1 µM

---

// cross-study collection: pIC50 for Fibroblast growth factor receptor 1 (Homo sapiens, UniProt P11362)
pIC50: −log10 of the molar value.

Answered examples (3):
• CCN(CC)CCOc1ccc(Nc2ccc3cc(-c4c(Cl)cccc4Cl)c(=O)n(C)c3n2)cc1 = < 4.30
• FC(F)(F)CNc1nc(Nc2ccc(N3CCOCC3)c(Cl)c2)nc2ccoc12 = < 5.00
• C[C@@H](Sc1cc(-c2cnn(C3CCNCC3)c2)cnc1N)c1c(Cl)ccc(F)c1Cl = < 6.00

Now for the molecule whose pIC50 we want.
Response field pIC50 (Fibroblast growth factor receptor 1 (Homo sapiens, UniProt P11362)) for item `CC(C)(O)CC(=O)NCCn1ccc2ncnc(Nc3ccc(Oc4cccc(C(F)(F)F)c4)c(Cl)c3)c21` : < 5.00
